target-or-system: Beta-3 Adrenergic Receptor (Homo sapiens (Human))
Sequence (P13945 whole entry, species assumed): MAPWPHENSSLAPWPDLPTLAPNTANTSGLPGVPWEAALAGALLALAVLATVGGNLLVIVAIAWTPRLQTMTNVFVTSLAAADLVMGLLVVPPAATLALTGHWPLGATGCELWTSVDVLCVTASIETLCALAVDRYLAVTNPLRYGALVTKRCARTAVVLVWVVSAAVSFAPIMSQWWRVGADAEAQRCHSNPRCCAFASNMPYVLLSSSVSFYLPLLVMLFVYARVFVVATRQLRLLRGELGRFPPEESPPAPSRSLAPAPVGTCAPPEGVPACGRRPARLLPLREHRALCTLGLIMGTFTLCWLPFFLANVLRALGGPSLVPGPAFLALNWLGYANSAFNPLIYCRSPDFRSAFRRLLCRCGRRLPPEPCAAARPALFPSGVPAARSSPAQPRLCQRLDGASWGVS
experimental-details: HTRF cAMP antagonist assay (IC50 determination)
details: CHO-K1 cells stably expressing recombinant receptor; antagonism of isoproterenol at EC90; cAMP readout
pIC50: −log10 of the molar value.
pIC50 values by entry
quantity-name: pIC50

> print(dat)
                                        mol  quantity.name  quantitative.readout
1  COc1ccc(S(=O)(=O)N2CCC3(CC2)C[C@H](NC[C@H](O)COc2cccc(S(=O)(=O)C(F)(F)CO)c2)CO3)cc1-c1ccc(C2(N)CC2)cc1          pIC50                  7.51
2  COc1ccc(S(=O)(=O)N2CCC3(CC2)C[C@H](NC[C@H](O)COc2cccc(S(=O)(=O)C(C)(C)CO)c2)CO3)cc1-c1ccc(C2(N)CC2)cc1          pIC50                  7.14
3  O=S(=O)(CCO)c1cccc(OC[C@@H](O)CN[C@H]2COC3(CCN(S(=O)(=O)c4ccc5ncccc5c4)CC3)C2)c1          pIC50                  7.12

---

log10 IC50 values by entry
target-or-system: Beta-3 Adrenergic Receptor (Homo sapiens (Human))
experimental-details: HTRF cAMP antagonist assay (IC50 determination)
Type: cell-based
details: CHO-K1 cells stably expressing recombinant receptor; antagonism of isoproterenol at EC90; cAMP readout
quantity-name: log10 IC50 (log10 of the value in nM)

> print(dat)
                                   compound  quantity.name  quantitative.readout
1  CC(C)CNCc1ccc(-c2cccc(S(=O)(=O)N3CCC4(CC3)C[C@@H](NC[C@H](O)COc3cccc(S(=O)(=O)C5(CO)CC5)c3)CO4)c2)cc1 [Compound 272]     log10 IC50                  2.75
2  NCCc1ccc(-c2cccc(S(=O)(=O)N3CCC4(CC3)C[C@@H](NC[C@H](O)COc3cccc(S(=O)(=O)C5(CO)CC5)c3)CO4)c2)cc1 [Compound 212]     log10 IC50                  1.41
3  CCNCc1ccc(-c2cccc(S(=O)(=O)N3CCC4(CC3)CC(NC[C@H](O)COc3cccc(S(C)(=O)=O)c3)CO4)c2)cc1 (stereo partly drawn) [Compound 79]     log10 IC50                  1.63
4  Cc1c(S(=O)(=O)N2CCC3(CC2)C[C@H](NC[C@H](O)COc2cccc(S(=O)(=O)C4(CO)CC4)c2)CO3)cnc2c1N(C)CCO2 [Compound 250]     log10 IC50                  2.53
5  CS(=O)(=O)Cc1cccc(OC[C@@H](O)CN[C@H]2COC3(CCN(S(=O)(=O)c4cnc5ccccc5c4)CC3)C2)c1 [Compound 95]     log10 IC50                  1.32
6  CCS(=O)(=O)c1cccc(OC[C@@H](O)CN[C@@H]2COC3(CCN(S(=O)(=O)c4ccc(OC)c(-c5ccc(C6(N)CC6)cc5)c4)CC3)C2)c1 [Compound 261]     log10 IC50                  1.59

---

target-or-system: UniProtKB P13945
experimental-details: HTRF cAMP antagonist assay (IC50 determination)
details: CHO-K1 cells stably expressing recombinant receptor; antagonism of isoproterenol at EC90; cAMP readout
log10 IC50 values by entry
quantity-name: log10 IC50 (log10 of the value in nM)

> print(dat)
                                    molecule  target.or.system  quantity.name  quantitative.readout
 1  CC(F)S(=O)(=O)c1cccc(OC[C@@H](O)CN[C@H]2COC3(CCN(S(=O)(=O)c4cnc5c(c4)N(C)CCO5)CC3)C2)c1 (stereo partly drawn)  UniProtKB P13945     log10 IC50                  1.18
 2  O=S(=O)(CC1CCCCC1)c1cccc(OC[C@@H](O)CNC2COC3(CCN(S(=O)(=O)c4ccc5ccccc5c4)CC3)C2)c1 (stereo partly drawn)  UniProtKB P13945     log10 IC50                  2.12
 3  COc1cccc(S(=O)(=O)N2CCC3(CC2)CC(NC[C@H](O)COc2cccc(S(C)(=O)=O)c2)CO3)c1 (stereo partly drawn)  UniProtKB P13945     log10 IC50                  1.52
 4  CS(=O)(=O)c1cccc(OC[C@@H](O)CNC2COC3(CCN(S(=O)(=O)c4cccc(-c5ccc(CN)cc5)c4)CC3)C2)c1 (stereo partly drawn)  UniProtKB P13945     log10 IC50                  1.14
 5  COc1c(-c2ccc(CN)cc2)cccc1S(=O)(=O)N1CCC2(CC1)C[C@H](NC[C@H](O)COc1cccc(S(=O)(=O)C3CC3)c1)CO2  UniProtKB P13945     log10 IC50                  1.46
 6  Cc1c(Br)cccc1S(=O)(=O)N1CCC2(CC1)C[C@H](NC[C@H](O)COc1cccc(S(=O)(=O)C3(CO)CC3)c1)CO2  UniProtKB P13945     log10 IC50                  1.86
 7  Cc1cc(=O)[nH]c2ccc(S(=O)(=O)N3CCC4(CC3)C[C@@H](NC[C@H](O)COc3cccc(S(=O)(=O)C5(CO)CC5)c3)CO4)cc12  UniProtKB P13945     log10 IC50                  2.57
 8  O=S(=O)(c1cnc2ccccc2c1)N1CCC2(CC1)C[C@@H](NC[C@H](O)COc1cccc(S(=O)(=O)C3(CO)CCC3)c1)CO2  UniProtKB P13945     log10 IC50                  1.41
 9  O=S(=O)(c1cccc(OC[C@@H](O)CN[C@H]2COC3(CCN(S(=O)(=O)c4ccc5ncccc5c4)CC3)C2)c1)C1CCC1  UniProtKB P13945     log10 IC50                  1.72
10  COCCN1CCOc2ncc(S(=O)(=O)N3CCC4(CC3)C[C@@H](NC[C@H](O)COc3cccc(S(=O)(=O)C5CC5)c3)CO4)cc21  UniProtKB P13945     log10 IC50                  1.84
11  O=S(=O)(c1cccc(-c2ccc(CNCC(F)(F)F)cc2)c1)N1CCC2(CC1)C[C@H](NC[C@H](O)COc1cccc(S(=O)(=O)C3(CO)CC3)c1)CO2  UniProtKB P13945     log10 IC50                  1.55
12  CC(F)S(=O)(=O)c1cccc(OC[C@@H](O)CN[C@H]2COC3(CCN(S(=O)(=O)c4ccc5ncccc5c4)CC3)C2)c1 (stereo partly drawn)  UniProtKB P13945     log10 IC50                  1.01
